# ASSAYED SYSTEM: T1, human CCR8 (human, UniProt P51685 1-355)
# T1 construct: whole, on cells; the cell line is named under assay; also called hCCR8
# T1 sequence (P51685 whole entry): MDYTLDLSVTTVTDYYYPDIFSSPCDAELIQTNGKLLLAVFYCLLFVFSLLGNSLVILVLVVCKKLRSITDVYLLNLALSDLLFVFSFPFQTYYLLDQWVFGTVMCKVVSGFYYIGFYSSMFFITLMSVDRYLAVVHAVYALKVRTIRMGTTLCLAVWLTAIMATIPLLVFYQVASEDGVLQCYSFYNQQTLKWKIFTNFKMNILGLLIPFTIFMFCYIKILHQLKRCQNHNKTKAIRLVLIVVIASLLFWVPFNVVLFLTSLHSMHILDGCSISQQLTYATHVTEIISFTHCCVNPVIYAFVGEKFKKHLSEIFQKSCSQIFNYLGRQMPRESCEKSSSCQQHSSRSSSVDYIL
# PROTOCOL: flow cytometry, competition with 10 nM AF647-human CCL1 on 293F-hCCR8 cells
PROPERTY: IC50 (µg/mL)
Please respond with the number in µg/mL and leave the unit unwritten.

Lookup: Query: IC50; subject: 27B9-1G3_hzH4L3_hIgG1 (antibody, V domains shown, Humanized, hIgG1/K; hzVH04 + hzVL03) VH: QVQLVQSGAEVKKPGSSVKVSCKASGYSFTGYNMNWVRQAPGQGLEWMGNIDPYYGGTNYNQKFKGKATITADKSTSTAYMELSSLRSEDTAVYYCARETWFITTGVIKKGFYFDYWGQGTTVTVSS VL: EIVLTQSPATLSLSPGERATLACSASSIISSNYLHWYQQKPGQSPRLLIYRTSSLASGVPARFSGSGSGTSYTLTISSLEPEDFAVYYCQQGSSIPRTFGGGTKVEIKR
Found: 0.167

Lookup: Query: IC50; subject: 27B9-1G3_hzH3L3_hIgG1 (antibody, V domains shown, Humanized, hIgG1/K; hzVH03 + hzVL03) VH: QVQLVQSGAEVKKPGSSVKVSCKASGGTFSGYNMNWVRQAPGQGLEWMGNIDPYYGGTNYNQKFKGKATITADKSTSTAYMELSSLRSEDTAVYYCARETWFITTGVIKKGFYFDYWGQGTTVTVSS VL: EIVLTQSPATLSLSPGERATLACSASSIISSNYLHWYQQKPGQSPRLLIYRTSSLASGVPARFSGSGSGTSYTLTISSLEPEDFAVYYCQQGSSIPRTFGGGTKVEIKR
Found: 0.189

Lookup: Query: IC50; subject: 27B9-1G3_hzH4L1_hIgG1 (antibody, V domains shown, Humanized, hIgG1/K; hzVH04 + hzVL01) VH: QVQLVQSGAEVKKPGSSVKVSCKASGYSFTGYNMNWVRQAPGQGLEWMGNIDPYYGGTNYNQKFKGKATITADKSTSTAYMELSSLRSEDTAVYYCARETWFITTGVIKKGFYFDYWGQGTTVTVSS VL: EIVLTQSPATLSLSPGERATLSCSASSIISSNYLHWYQQKPGQAPRLLIYRTSSLASGIPARFSGSGSGTDFTLTISSLEPEDFAVYYCQQGSSIPRTFGGGTKVEIKR
Found: 0.163
